# Read-out: CD40, CD40 (gene 958)
# ASSAY: BSK_LPS_CD40: BioMAP Diversity Plus: LPS Assay for CD40 Biomarker Activity (AID 2283076)
# ASSAY CONTEXT: primary human HUVEC with PBMC; actives raise or lower the signal
Active and inactive are the calls of the source. How the source made its calls: active means hit-call score of the fitted dose curve at least 0.9, where 1 is the maximum; inactive means score below 0.9.
Parameter call: string, one of active, inactive

Which result was noted for this compound in the test: O=C(O)C(Cl)Cl inactive

Quick one: CC(C)(C)c1ccccc1OP(=O)(Oc1ccccc1)Oc1ccccc1 active

Thanks! And CCCCN(CCCC)N=O ? inactive

Consider next the compound CC(Cl)(Cl)C(=O)O in the same way. inactive

Note, next up: O=[N+]([O-])c1ccc(Cl)c(Cl)c1 inactive

And then ClC(Cl)(Cl)c1ccccc1 , what is it? inactive

Also ClC(Cl)c1ccccc1 , if possible. inactive

What do you get for CCNc1nc(Cl)nc(NC(C)(C)C)n1 ? inactive

Same again, this time with CCC1(c2ccccc2)C(=O)N=C(O)NC1=O (stereo not drawn) inactive

How about this compound: CCOP(=S)(OCC)SCSc1ccc(Cl)cc1 active

Then this compound: CCOP(=S)(NC(C)C)Oc1ccccc1C(=O)OC(C)C (stereo not drawn) inactive

Also, CCOS(=O)(=O)OCC please. inactive

Param item: O=P(OCC(Br)CBr)(OCC(Br)CBr)OCC(Br)CBr (stereo not drawn) inactive

Lookup CC(C)(C)OOC(C)(C)C inactive

Now consider CCC(C)(C)c1ccc(O)cc1 . inactive

Entry to check: c1cc2c3c(cccc3c1)CC2 inactive

Would you kindly repeat that for COC(=O)C(F)(F)C(F)(F)OC(F)(C(F)(F)F)C(F)(F)OC(F)=C(F)F (stereo not drawn) ? inactive

Now this one: CC(Cc1ccc(OCC(=O)O)cc1)NCC(O)c1csc(C(F)(F)F)n1 (stereo not drawn) inactive
